Where do the numbers come from? From the supplement of paper PMC11061612.

System: 22RV1 (Prostate Carcinoma)
Assay: combination Emax (second highest fraction inhibited in the dose matrix, 72 h); higher = more inhibition; extreme values may be limits of the assay
Give measured combination Emax for each item. Keep answers brief.
Reply with the value as a number alone.

// combination Emax lookup, key: COc1cccc(OCCCN)c1-c1cc(Nc2cnc(C#N)cn2)n[nH]1 [Prexasertib] + CCc1c2c(nc3ccc(O)cc13)-c1cc3c(c(=O)n1C2)COC(=O)[C@]3(O)CC [SN-38] (first compound max 1 µM, 7x7, partner max 0.3 µM)
0.727

Would you kindly share the measured combination Emax for CN(CCO)CC[C@H](CSc1ccccc1)Nc1ccc(S(=O)(=O)NC(=O)c2ccc(N3CCC([C@@H](O)c4ccccc4-c4ccc(Cl)cc4)CC3)cc2)cc1S(=O)(=O)C(F)(F)F [AZD4320] + C1CN(CCC1(C(=O)N[C@@H](CCO)C2=CC=C(C=C2)Cl)N)C3=NC=NC4=C3C=CN4 [Capivasertib] (first compound max 1 µM, 7x7, partner max 3 µM) ?
0.471

Value lookup for combination Emax; key = C=CCn1c(=O)c2cnc(Nc3ccc(N4CCN(C)CC4)cc3)nc2n1-c1cccc(C(C)(C)O)n1 [AZD1775] + Nc1ccn([C@@H]2O[C@H](CO)[C@@H](O)C2(F)F)c(=O)n1 [Gemcitabine] (first compound max 1 µM, partner max 0.3 µM)
0.744
